Recorded pIC50 for the following compounds
target: His6-PDK1(Δ1-50) (Homo sapiens, UniProt O15530); construct: His6 (N); assay: Inhibition of PDK1 (IC50), 384-well flashplate kinase assay; format: biochemical; details: 4 μM ATP, 400 nM PDKtide, second part of Table 1 (compounds 32-124)
Sequence (O15530 51-556, stated change not applied): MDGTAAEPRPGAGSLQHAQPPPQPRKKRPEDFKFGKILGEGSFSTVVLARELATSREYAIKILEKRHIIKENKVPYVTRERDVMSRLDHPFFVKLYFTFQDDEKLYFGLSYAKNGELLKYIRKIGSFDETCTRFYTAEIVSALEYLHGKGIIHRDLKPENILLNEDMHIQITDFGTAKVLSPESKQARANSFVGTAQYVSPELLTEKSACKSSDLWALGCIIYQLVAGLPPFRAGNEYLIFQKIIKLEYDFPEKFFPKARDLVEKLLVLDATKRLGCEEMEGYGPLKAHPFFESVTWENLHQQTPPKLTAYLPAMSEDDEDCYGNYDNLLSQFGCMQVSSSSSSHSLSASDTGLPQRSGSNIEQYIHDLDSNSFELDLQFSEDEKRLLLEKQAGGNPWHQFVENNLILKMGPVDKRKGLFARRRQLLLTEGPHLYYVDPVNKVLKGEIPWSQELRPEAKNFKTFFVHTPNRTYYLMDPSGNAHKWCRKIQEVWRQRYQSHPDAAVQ
Please keep in mind that pIC50 is minus log10 of the molar concentration; only the number is needed.

In one line, give reported pIC50 of the entry `Cc1ccc2c(c1C)Nc1nc(NC3CCN(C)CC3)ncc1C(=O)N2` .
5.47

In one line, give reported pIC50 of the entry `CN1CCC(N(C)c2ncc3c(n2)Nc2ccc(NC(=O)NC4CCCC4)cc2NC3=O)CC1` .
6.82

In one line, give reported pIC50 of the entry `CCN1CCC(Nc2ncc3c(n2)Nc2ccc(C(C)(C)C)cc2NC3=O)CC1` .
5.85

In one line, give reported pIC50 of the entry `CN1CCC(Nc2ncc3c(n2)Nc2cc(Cl)c(Cl)cc2NC3=O)CC1` .
5.92

In one line, give reported pIC50 of the entry `CN1CCC(N(C)c2ncc3c(n2)Nc2cc(N)ccc2NC3=O)CC1` .
6.29

In one line, give reported pIC50 of the entry `CN1CCC(N(C)c2ncc3c(n2)Nc2cc(NC(=O)Nc4cccs4)ccc2NC3=O)CC1` .
6.54

In one line, give reported pIC50 of the entry `CN1CCC(Nc2ncc3c(n2)Nc2ccc(N(C)C)cc2NC3=O)CC1` .
6.72

In one line, give reported pIC50 of the entry `CN1CCC(N(C)c2ncc3c(n2)Nc2ccc(NC(=O)Nc4ccsc4)cc2NC3=O)CC1` .
6.92

In one line, give reported pIC50 of the entry `CN(c1ncc2c(n1)Nc1ccc(C(C)(C)C)cc1NC2=O)C1CCNCC1` .
6.37

In one line, give reported pIC50 of the entry `CCN1CCC(Nc2ncc3c(n2)Nc2c(C)cc(C)cc2NC3=O)CC1` .
5.32

In one line, give reported pIC50 of the entry `Cc1noc(C)c1NC(=O)Nc1ccc2c(c1)Nc1nc(N(C)C3CCN(C)CC3)ncc1C(=O)N2` .
6.02

In one line, give reported pIC50 of the entry `CCNC(=O)Nc1ccc2c(c1)Nc1nc(N(C)C3CCN(C)CC3)ncc1C(=O)N2` .
5.89

In one line, give reported pIC50 of the entry `CCOc1ccc2c(c1)NC(=O)c1cnc(N(C)C3CCN(C)CC3)nc1N2` .
6.37

In one line, give reported pIC50 of the entry CCC(C)NC(=O)Nc1ccc2c(c1)Nc1nc(N(C)C3CCN(C)CC3)ncc1C(=O)N2 (stereo not drawn) .
6.03

In one line, give reported pIC50 of the entry `Cc1cc2c(cc1C)Nc1nc(N(C)C3CCN(CCN(C)C)CC3)ncc1C(=O)N2` .
5.41

In one line, give reported pIC50 of the entry `Cc1cc2c(cc1C)Nc1nc(N(C)C3CCNCC3)ncc1C(=O)N2` .
6.49

In one line, give reported pIC50 of the entry `Cc1ccc2c(c1)NC(=O)c1cnc(NC3CCN(C(C)C)CC3)nc1N2` .
5.62

In one line, give reported pIC50 of the entry `CN1CCC(N(C)c2ncc3c(n2)Nc2cc(NC(=O)Nc4ccsc4)ccc2NC3=O)CC1` .
6.80

In one line, give reported pIC50 of the entry `CCN1CCC(Nc2ncc3c(n2)Nc2ccc(C(F)(F)F)cc2NC3=O)CC1` .
5.54
